B1: ANKRD40 (parent)
chain: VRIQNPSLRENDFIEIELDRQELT

Variants of: B1
Assay: protein stability index of a GFP-peptide fusion (GPS, HEK-293T) (PSI 1-6); higher = more stable;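 also: lentivirally expressed fusions sorted by FACS into six bins by GFP to DsRed ratio, PSI derived from sequencing read proportions per bin multiplied by bin number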
Details: c terminus: a fixed tail appended
Criterion: protein stability index meeting or surpassing 2. Met: T. Not met: F.

Data request: protein stability index >= 2 for N5H ?
Data returned: F

Data request: Threshold query (protein stability index >= 2) on E15I
Data returned: T

Data request: Is protein stability index for L23Y at or above 2?
Data returned: T

Data request: hey, is protein stability index for this one >= 2? P6I
Data returned: F

Data request: Does the variant R20Q have recorded protein stability index that is 2 or more?
Data returned: T

Data request: State whether the measured protein stability index reaches 2, counting equality as reaching it, for Q21F
Data returned: F

Data request: Dear colleague, could you confirm whether L18K has protein stability index at or above 2?
Data returned: T

Data request: In plain terms: is recorded protein stability index at least 2 for L23F ?
Data returned: T

Where do these numbers come from? They come from the supplement of paper PMC10567573.
